assay: H358 Cell Viability Secondary Assay for qHTS Assay for Epigenetic Modulators; details: H358 NSCLC viability, MTS absorbance, 4 days
Results filed as inconclusive are left out. Calls of active or inactive are those of the source. The call rests on the fitted dose curve.
Possible outcomes: Yes (active), No (inactive)

molecule | group-label
CN1C(=S)SC(c2ccccc2)N(C)C1c1ccccc1 (stereo unspecified) | No
O=Nc1ccc(O)c2ncccc12 | Yes
CC(C)C(=O)NC(c1ccco1)c1cc([N+](=O)[O-])c2cccnc2c1O (stereo unspecified) | Yes
CN1CCN(Cc2cc(Cl)c3cccnc3c2O)CC1 | Yes
O=C(CSc1cccc2cccnc12)NCc1ccccc1 | No
CC(/C=C/C(=O)NO)=C\[C@@H](C)C(=O)c1ccc(N(C)C)cc1 | Yes

All values here come from PubChem BioAssay AID1043.
